- targetUnderTest: T1, biotinylated native human ApoC3 (human, UniProt P02656 21-99, biotinylated (site not stated))
- T1 construct: also called biotinylated human ApoC3
- T1 sequence (P02656 21-99): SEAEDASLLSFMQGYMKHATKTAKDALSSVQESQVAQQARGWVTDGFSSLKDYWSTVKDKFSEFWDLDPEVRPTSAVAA
- assayComment: SPR, IgG1 over biotinylated ApoC3 on SA chip, pH 7.4
outcomeMeasure: log10 of Ka (log10 of the value in M⁻¹)
Reminder: these figures are log10 of reported Ka, in M⁻¹ before transformation.

Known results for binders:
mAb10 (antibody, IgG1, V domains shown, Produced as full length IgG1 (kappa) in ExpiCHO-S cells; also called humanized anti-ApoC3 antibody mAb10) VH: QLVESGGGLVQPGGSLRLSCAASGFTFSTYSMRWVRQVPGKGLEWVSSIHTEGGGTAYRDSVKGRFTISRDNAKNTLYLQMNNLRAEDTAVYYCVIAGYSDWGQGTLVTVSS VL: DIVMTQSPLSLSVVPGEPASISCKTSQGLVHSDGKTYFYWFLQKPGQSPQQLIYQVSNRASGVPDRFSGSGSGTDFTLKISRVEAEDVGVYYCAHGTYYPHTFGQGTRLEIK
10.02
mAb14 (antibody, IgG1, V domains shown, Produced as full length IgG1 (kappa) in ExpiCHO-S cells; CDR graft into the closest human germline frameworks; also called humanized anti-ApoC3 antibody mAb14; variant 14) VH: QLLESGGGLVQPGGSLRLSCAASGFTFGTYSMRWVRQVPGKGLEWVSSIHTEGGGTAYRDSVKGRFTISRDNSKNTLYLQMNSLRAEDTAVYYCVIAGYSDWGQGTLVTVSS VL: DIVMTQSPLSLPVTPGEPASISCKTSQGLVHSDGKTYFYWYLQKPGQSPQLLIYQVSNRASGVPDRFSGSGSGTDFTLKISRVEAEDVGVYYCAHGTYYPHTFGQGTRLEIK
8.53

Please report log10 of Ka for every entry that follows.
1. mAb20 (antibody, IgG1, V domains shown, Produced as full length IgG1 (kappa) in ExpiCHO-S cells; also called humanized anti-ApoC3 antibody mAb20) VH: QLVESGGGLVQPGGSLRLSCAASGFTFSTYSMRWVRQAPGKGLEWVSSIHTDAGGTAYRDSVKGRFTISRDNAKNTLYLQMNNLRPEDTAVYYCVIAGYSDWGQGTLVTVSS VL: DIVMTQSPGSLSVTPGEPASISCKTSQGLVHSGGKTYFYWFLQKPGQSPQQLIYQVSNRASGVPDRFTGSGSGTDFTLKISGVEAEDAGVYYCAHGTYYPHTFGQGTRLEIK
2. mAb2 (antibody, IgG1, V domains shown, Produced as full length IgG1 (kappa) in ExpiCHO-S cells; also called humanized anti-ApoC3 antibody mAb2) VH: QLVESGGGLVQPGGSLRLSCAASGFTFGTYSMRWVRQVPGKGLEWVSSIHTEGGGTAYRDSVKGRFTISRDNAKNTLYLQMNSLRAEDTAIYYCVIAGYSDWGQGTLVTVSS VL: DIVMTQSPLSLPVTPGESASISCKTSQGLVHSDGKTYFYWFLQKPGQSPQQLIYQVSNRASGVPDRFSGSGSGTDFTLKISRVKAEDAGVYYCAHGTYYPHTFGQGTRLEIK

1. 9.23
2. 10.26

Report log10 of Ka, nothing else, for this binder: mAb8 (antibody, IgG1, V domains shown, Produced as full length IgG1 (kappa) in ExpiCHO-S cells; also called humanized anti-ApoC3 antibody mAb8) VH: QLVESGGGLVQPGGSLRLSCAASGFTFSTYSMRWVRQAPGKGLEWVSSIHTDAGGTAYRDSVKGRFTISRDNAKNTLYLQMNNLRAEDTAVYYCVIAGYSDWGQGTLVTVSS VL: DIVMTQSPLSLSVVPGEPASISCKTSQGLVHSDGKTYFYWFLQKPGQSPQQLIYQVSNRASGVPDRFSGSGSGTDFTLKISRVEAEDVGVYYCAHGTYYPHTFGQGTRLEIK
9.99
